So I've got a bunch of molecules here, and I need their kinase still bound, per cent of control values.
- assay.system: IRAK4 (human) (UniProt Q9NWZ3)
- Sequence (Q9NWZ3 whole entry, looked up): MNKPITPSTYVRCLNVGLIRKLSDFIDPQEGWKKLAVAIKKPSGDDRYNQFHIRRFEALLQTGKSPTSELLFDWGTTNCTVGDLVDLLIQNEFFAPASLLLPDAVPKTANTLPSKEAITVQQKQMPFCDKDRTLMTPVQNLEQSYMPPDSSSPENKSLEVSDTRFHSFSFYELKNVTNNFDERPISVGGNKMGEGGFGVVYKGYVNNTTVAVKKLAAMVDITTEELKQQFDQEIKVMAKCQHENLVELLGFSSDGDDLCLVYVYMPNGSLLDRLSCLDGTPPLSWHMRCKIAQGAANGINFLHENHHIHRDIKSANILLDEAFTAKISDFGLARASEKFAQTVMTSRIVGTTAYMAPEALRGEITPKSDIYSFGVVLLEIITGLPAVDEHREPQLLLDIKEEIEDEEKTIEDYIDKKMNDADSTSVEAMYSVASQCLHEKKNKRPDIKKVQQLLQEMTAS
- experimental.details: KINOMEscan competition binding
- conditions.used: compound 10.0 µM
Give bare numbers, in %.

Known kinase still bound, per cent of control results, listed for orientation:
- N#C/C(=C1/Nc2ccccc2S1)c1ccnc(NCCc2cccnc2)n1: 48
- CNC(=O)Nc1ccc(-c2nc(N3CC4CCC(C3)O4)c3cnn(C4CCC5(CC4)OCCO5)c3n2)cc1: 100
- CCN1CCN(Cc2ccc(NC(=O)c3ccc(C)c(/C=C/c4cnc5[nH]ccc5c4OC)c3)cc2C(F)(F)F)CC1: 48
- COc1cc2ncnc(Nc3cccc(Cl)c3)c2cc1OC: 8.9
- CC1=C(C(=O)Nc2cc3cn[nH]c3cc2F)C(c2ccc(C(F)(F)F)cc2)CC(=O)N1 (stereo unspecified): 97
- CCc1nc(-c2cccc(C)c2)c(-c2ccnc(NC(=O)c3ccccc3)c2)s1: 100
- CCCS(=O)(=O)Nc1ccc(F)c(C(=O)c2c[nH]c3ncc(Cl)cc23)c1F: 86
- CC(=O)c1c(C)c2cnc(Nc3ccc(N4CCNCC4)cn3)nc2n(C2CCCC2)c1=O: 39

Required: kinase still bound, per cent of control, one value per molecule below.
1. CCN(CCO)CCCOc1ccc2c(Nc3cc(CC(=O)Nc4cccc(F)c4)[nH]n3)ncnc2c1
2. C=CC(=O)Nc1ccc(C(=O)c2sc(Nc3ccc(N4CCN(C)CC4)cc3OC)nc2N)cc1
3. N#Cc1cc(-c2ccnc(Nc3ccc(-n4cnc(-c5cccnc5)n4)cc3)n2)cc(N2CCOCC2)c1

[out]
[76, 92, 100]

###

So I've got a bunch of molecules here, and I need their kinase still bound, per cent of control values.
- assay.system: GSK3B (human) (UniProt P49841)
- Sequence (P49841 whole entry, looked up): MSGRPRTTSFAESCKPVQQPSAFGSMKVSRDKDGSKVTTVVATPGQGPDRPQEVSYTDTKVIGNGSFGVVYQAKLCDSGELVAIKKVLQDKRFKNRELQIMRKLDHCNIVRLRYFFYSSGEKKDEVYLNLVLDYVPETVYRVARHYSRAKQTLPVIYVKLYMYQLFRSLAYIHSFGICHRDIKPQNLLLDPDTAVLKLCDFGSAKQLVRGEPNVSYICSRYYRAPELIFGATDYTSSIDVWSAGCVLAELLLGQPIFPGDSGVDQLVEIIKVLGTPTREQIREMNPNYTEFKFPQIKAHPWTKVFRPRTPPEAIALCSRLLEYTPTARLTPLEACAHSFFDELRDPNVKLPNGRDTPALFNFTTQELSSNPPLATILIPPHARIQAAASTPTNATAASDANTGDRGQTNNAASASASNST
- experimental.details: KINOMEscan competition binding
- conditions.used: compound 10.0 µM
Answers are plain numbers, in %.

* COc1cc2ncnc(Nc3cccc(Cl)c3)c2cc1OC | 90

Required: kinase still bound, per cent of control, one value per molecule below.
1. COc1cc(C)c(Sc2cnc(NC(=O)c3ccc(CNC(C)C(C)C)cc3)s2)cc1C(=O)N1CCN(C(C)=O)CC1 (stereo not given)
2. COc1ccc(N(C(=O)Oc2cc(C(=O)Nc3cccc(C(F)(F)F)c3)ccc2C)c2ccnc(Nc3ccc(N4CCN(C)CC4)cc3)n2)c(OC)c1
3. CCc1nc(-c2cccc(C)c2)c(-c2ccnc(NC(=O)c3ccccc3)c2)s1
4. CC1=C(C(=O)Nc2cc3cn[nH]c3cc2F)C(c2ccc(C(F)(F)F)cc2)CC(=O)N1 (stereo not given)
5. COc1cc(N2CCC(C(N)=O)CC2)ccc1Nc1nc(N)c(Cl)c(Nc2ccccc2S(=O)(=O)C(C)C)n1
6. CCN1CCN(Cc2ccc(NC(=O)c3ccc(C)c(/C=C/c4cnc5[nH]ccc5c4OC)c3)cc2C(F)(F)F)CC1

[out]
100
100
60
89
100
99

Required: kinase still bound, per cent of control, one value per molecule below.
1. N#C/C(=C1/Nc2ccccc2S1)c1ccnc(NCCc2cccnc2)n1
2. CNC(=O)Nc1ccc(-c2nc(N3CC4CCC(C3)O4)c3cnn(C4CCC5(CC4)OCCO5)c3n2)cc1
3. O=c1[nH]c2ccccc2n1C1CCN(Cc2ccc(-c3nc4cc5[nH]cnc5cc4nc3-c3ccccc3)cc2)CC1

[out]
0.15
69
89

###

- assay.system: PIP5K1A (human)
- experimental.details: KINOMEscan competition binding
- conditions.used: compound 10.0 µM
quantity: kinase still bound, per cent of control (%)
Numbers only, in %.

* Cc1cn(-c2cc(C(=O)Nc3ccc(C)c(NC(=O)c4ccno4)c3)cc(C(F)(F)F)c2)cn1 | 100
* CNC(=O)Nc1ccc(-c2nc(N3CC4CCC(C3)O4)c3cnn(C4CCC5(CC4)OCCO5)c3n2)cc1 | 84
* CCN1CCN(Cc2ccc(NC(=O)c3ccc(C)c(/C=C/c4cnc5[nH]ccc5c4OC)c3)cc2C(F)(F)F)CC1 | 2.6
* CCOc1cc(N2CCC(O)CC2)ccc1Nc1ncc2c(n1)N(C)c1ccccc1C(=O)N2C | 100
* COc1cc(C)c(Sc2cnc(NC(=O)c3ccc(CNC(C)C(C)C)cc3)s2)cc1C(=O)N1CCN(C(C)=O)CC1 (configuration not stated) | 100

Required: kinase still bound, per cent of control, one value per compound below.
1. CC1=C(C(=O)Nc2cc3cn[nH]c3cc2F)C(c2ccc(C(F)(F)F)cc2)CC(=O)N1 (configuration not stated)
2. CCCS(=O)(=O)Nc1ccc(F)c(C(=O)c2c[nH]c3ncc(Cl)cc23)c1F

[out]
1. 89
2. 100

###

- assay.system: ITK (human) (UniProt Q08881)
- Sequence (Q08881 whole entry, looked up): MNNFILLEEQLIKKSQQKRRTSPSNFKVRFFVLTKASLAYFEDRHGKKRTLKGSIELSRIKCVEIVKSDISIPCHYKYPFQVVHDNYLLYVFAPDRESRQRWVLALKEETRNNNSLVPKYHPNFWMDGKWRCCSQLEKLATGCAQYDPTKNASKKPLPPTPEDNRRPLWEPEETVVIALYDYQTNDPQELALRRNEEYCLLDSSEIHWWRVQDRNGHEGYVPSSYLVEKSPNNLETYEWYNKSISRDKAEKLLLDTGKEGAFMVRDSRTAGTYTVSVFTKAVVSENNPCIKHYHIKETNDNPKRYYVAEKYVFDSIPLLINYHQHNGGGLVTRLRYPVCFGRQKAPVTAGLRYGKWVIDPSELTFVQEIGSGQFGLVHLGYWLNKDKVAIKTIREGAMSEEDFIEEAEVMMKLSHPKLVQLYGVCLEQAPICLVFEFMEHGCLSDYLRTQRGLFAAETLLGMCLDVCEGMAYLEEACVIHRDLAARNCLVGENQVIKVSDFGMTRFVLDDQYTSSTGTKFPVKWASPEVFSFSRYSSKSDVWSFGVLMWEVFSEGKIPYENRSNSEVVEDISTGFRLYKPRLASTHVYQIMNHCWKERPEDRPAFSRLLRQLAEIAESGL
- experimental.details: KINOMEscan competition binding
- conditions.used: compound 10.0 µM
quantity: kinase still bound, per cent of control (%)
Give bare numbers, in %.

Known kinase still bound, per cent of control results, listed for orientation:
* CC(=O)c1c(C)c2cnc(Nc3ccc(N4CCNCC4)cn3)nc2n(C2CCCC2)c1=O | 71
* O=c1[nH]c2ccccc2n1C1CCN(Cc2ccc(-c3nc4cc5[nH]cnc5cc4nc3-c3ccccc3)cc2)CC1 | 97
* N#Cc1cc(-c2ccnc(Nc3ccc(-n4cnc(-c5cccnc5)n4)cc3)n2)cc(N2CCOCC2)c1 | 100
* COc1cc(C)c(Sc2cnc(NC(=O)c3ccc(CNC(C)C(C)C)cc3)s2)cc1C(=O)N1CCN(C(C)=O)CC1 (centres undefined) | 0.25
* CCOc1cc(N2CCC(O)CC2)ccc1Nc1ncc2c(n1)N(C)c1ccccc1C(=O)N2C | 100
* COc1cc2ncnc(Nc3cccc(Cl)c3)c2cc1OC | 100

Required: kinase still bound, per cent of control, one value per compound below.
1. CC1=C(C(=O)Nc2cc3cn[nH]c3cc2F)C(c2ccc(C(F)(F)F)cc2)CC(=O)N1 (centres undefined)
2. C=CC(=O)Nc1ccc(C(=O)c2sc(Nc3ccc(N4CCN(C)CC4)cc3OC)nc2N)cc1
3. COc1ccc(N(C(=O)Oc2cc(C(=O)Nc3cccc(C(F)(F)F)c3)ccc2C)c2ccnc(Nc3ccc(N4CCN(C)CC4)cc3)n2)c(OC)c1

[out]
74
74
100

Required: kinase still bound, per cent of control, one value per compound below.
1. N#C/C(=C1/Nc2ccccc2S1)c1ccnc(NCCc2cccnc2)n1
2. COc1cc(N2CCC(C(N)=O)CC2)ccc1Nc1nc(N)c(Cl)c(Nc2ccccc2S(=O)(=O)C(C)C)n1
3. CCN(CCO)CCCOc1ccc2c(Nc3cc(CC(=O)Nc4cccc(F)c4)[nH]n3)ncnc2c1

[out]
100
100
96

Required: kinase still bound, per cent of control, one value per compound below.
1. CCc1nc(-c2cccc(C)c2)c(-c2ccnc(NC(=O)c3ccccc3)c2)s1
2. Cc1cn(-c2cc(C(=O)Nc3ccc(C)c(NC(=O)c4ccno4)c3)cc(C(F)(F)F)c2)cn1

[out]
1. 100
2. 100

###

- System: MET (human), P08581 [M1250T]
- experimental.details: KINOMEscan competition binding
- conditions.used: compound 10.0 µM
Please use Satisfied for kinase still bound, per cent of control under 40% and Not satisfied for everything else, ties included.

Record excerpt, results attached:
- CS(=O)(=O)N1CCN(Cc2cc3nc(-c4cccc5[nH]ncc45)nc(N4CCOCC4)c3s2)CC1: Not satisfied
- CNC(=O)Nc1ccc(-c2nc(N3CC4CCC(C3)O4)c3cnn(C4CCC5(CC4)OCCO5)c3n2)cc1: Not satisfied
- O=c1[nH]c2ccccc2n1C1CCN(Cc2ccc(-c3nc4cc5[nH]cnc5cc4nc3-c3ccccc3)cc2)CC1: Satisfied

[in] Please let me know if Cc1cn(-c2cc(C(=O)Nc3ccc(C)c(NC(=O)c4ccno4)c3)cc(C(F)(F)F)c2)cn1 shows kinase still bound, per cent of control below 40%.
[out] Not satisfied

[in] Please let me know if O=C(NC1CC1)c1cccc(-c2ccc3c(NC(=O)C4CC4)n[nH]c3c2)c1 shows kinase still bound, per cent of control below 40%.
[out] Not satisfied

[in] Please let me know if CCOc1cc2ncc(C#N)c(Nc3ccc(OCc4ccccn4)c(Cl)c3)c2cc1NC(=O)/C=C/CN(C)C shows kinase still bound, per cent of control below 40%.
[out] Not satisfied

[in] Please let me know if COc1cc(C(=O)NC2CCN(C)CC2)ccc1Nc1ncc2c(n1)N(C1CCCC1)CCC(=O)N2C(C)C shows kinase still bound, per cent of control below 40%.
[out] Not satisfied

[in] Please let me know if CCN(CC)CCCCNc1ncc2c(n1)N(C)C(=O)N(c1c(Cl)c(OC)cc(OC)c1Cl)C2 shows kinase still bound, per cent of control below 40%.
[out] Not satisfied

[in] Please let me know if COc1cc2ncn(-c3cc(OCc4ccccc4C(F)(F)F)c(C(N)=O)s3)c2cc1OC shows kinase still bound, per cent of control below 40%.
[out] Satisfied

[in] Please let me know if NC(=O)Nc1cc(-c2cccc(F)c2)sc1C(=O)N[C@@H]1CCCNC1 shows kinase still bound, per cent of control below 40%.
[out] Satisfied
